# tested.system: Tyrosine-protein kinase Yes (Homo sapiens)
# assay.procedure: qHTS for small molecule inhibitors of Yes1 kinase: Primary Screen (AID 686947); also: nearly all actives have a fitted effect of over 60% in size
# experimental.setup: Yes1 kinase biochemical qHTS inhibition; series mostly up to 76.9 µM
Results filed as inconclusive are left out. Calls of active or inactive are those of the source. Calls follow the shape of the dose curve; as a rule, active = well fitted inhibition curve with a large enough effect; inconclusive = small, poorly fitted or top-dose-only effect; inactive = no such curve, though single readings can be large or run the other way.
The reply should be one of these categories: class 1 (active), class 0 (inactive)

> print(dat)
                                   molecule                             tested.system  classification
1    Cc1ccc(O)cc1Nc1ccnc2cc(-c3ccccn3)ccc12  Tyrosine-protein kinase Yes (Homo sapiens)         class 1
2  Cc1cc(Cl)cc2c(N=Nc3ccc(S(N)(=O)=O)cc3)c(O)[nH]c12  Tyrosine-protein kinase Yes (Homo sapiens)         class 1
3  NS(=O)(=O)c1cccc(-c2cc3ccncc3cc2OCc2ccccc2)c1  Tyrosine-protein kinase Yes (Homo sapiens)         class 0
4    O=C1NC(=O)C(c2ccccc2Cl)=C1Nc1cccc(O)c1  Tyrosine-protein kinase Yes (Homo sapiens)         class 1
5          O=C1Nc2ccccc2C1=C1CCc2cc(O)ccc21  Tyrosine-protein kinase Yes (Homo sapiens)         class 1

Let us examine a further case.
Recorded call for CCc1cccc(CC)c1C=Cc1cncc(C(=O)NC)c1 ?
class 1

----------
# Tested on: PAD
# assay.procedure: qHTS profiling for inhibitors of Plasmodium falciparum proliferation (AID 504749); also: nearly all actives have a fitted effect of over 60% in size
# experimental.setup: P. falciparum in erythrocytes, SYBR Green DNA, 72 h; series mostly up to 28.7 µM
Records with an inconclusive call do not appear. Active and inactive are the calls of the source. Calls follow the shape of the dose curve; as a rule, active = well fitted inhibition curve with a large enough effect; inconclusive = small, poorly fitted or top-dose-only effect; inactive = flat fitted curve, though single readings scatter. Numbered stars: 1 amine (or outer) side, 2 acyl side, 3 side chain; on linkers, the order of the positions; unused ones are H or OH. Bridge positions count the residues as written; N and C are the ends. Square brackets hold non-standard residues; d marks the D form. Peptide text beside a SMILES is read from it. * marks the point of attachment. ξ: configuration not given here. ΔAla(Z-3-ureido) = NC(=O)N/C=C(\N)C(=O)O; X2 = NC1=NC(O)CC(C(N[*:1])C(=O)[*:2])N1; ξβ3hOrn = NCCCC(N)CC(=O)*; Orn = NCCC[CH](N)C(=O)O; Dap = NC[CH](N)C(=O)O
The reply should be one of these categories: T = active, F = inactive

compound	tested.system	classification
CC1(C)C(/C=C/C=C/C=C/C=C2\N(CCCCS(=O)(=O)O)c3ccc4ccccc4c3C2(C)C)=[N+](CCCCS(=O)(=O)[O-])c2ccc3ccccc3c21	PAD	F

Recorded call for NCCCC(N)CC(=O)NC1CNC(=O)C(C2CC(O)N=C(N)N2)NC(=O)/C(=C/NC(N)=O)NC(=O)C(CO)NC(=O)C(CO)NC1=O (stereo not drawn) (ξβ3hOrn-[Dap]SS[ΔAla(Z-3-ureido)][X2]; lactam 1-C; configuration not given here) ?
F

Recorded call for C=CC1=C(C(=O)O)N2C(=O)[C@@H](NC(=O)C(N=O)c3csc(N)n3)[C@H]2SC1 (stereo not given in full) ?
F

Recorded call for CCC(Oc1ccccc1)C(=O)NC1C(=O)N2C1SC(C)(C)C2C(=O)O (stereo not given) ?
F

Recorded call for CC(C)CC1NC(=O)C(CCCN)NC(=O)C(C(C)C)NC(=O)C2CCCN2C(=O)C(Cc2ccccc2)NC(=O)C(CC(C)C)NC(=O)C(CCCN)NC(=O)C(C(C)C)NC(=O)C2CCCN2C(=O)C(Cc2ccccc2)NC1=O (stereo not given) (cyclo(FPV[Orn]LFPV[Orn]L); configuration not given here) ?
T

----------
# tested.system: Nuclear receptor subfamily 1 group I member 2 (Rattus norvegicus) (UniProt Q9R1A7)
# Sequence (Q9R1A7 whole entry, looked up): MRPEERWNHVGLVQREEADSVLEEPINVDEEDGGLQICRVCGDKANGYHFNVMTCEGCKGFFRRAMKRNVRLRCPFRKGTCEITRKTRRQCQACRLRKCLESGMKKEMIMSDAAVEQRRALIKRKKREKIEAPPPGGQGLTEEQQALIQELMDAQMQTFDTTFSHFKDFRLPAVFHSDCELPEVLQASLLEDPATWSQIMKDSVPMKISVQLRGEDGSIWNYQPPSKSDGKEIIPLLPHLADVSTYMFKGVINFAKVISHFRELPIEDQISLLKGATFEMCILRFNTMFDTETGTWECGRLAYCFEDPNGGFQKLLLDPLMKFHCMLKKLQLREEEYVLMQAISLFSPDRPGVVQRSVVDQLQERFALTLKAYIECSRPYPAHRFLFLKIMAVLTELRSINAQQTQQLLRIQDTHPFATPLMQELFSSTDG
# assay.procedure: qHTS assay for small molecule activators of the rat pregnane X receptor (rPXR) signaling pathway (AID 651751); also: 0% is about no effect
# experimental.setup: rPXR reporter cells, luciferase (One-Glo), 24 h
test.readout: max response (%)
Write the answer as a number in %, unit excluded.

Observe how each entry below is paired with its result.
> print(dat)
                       compound  observed
1    CC(C)c1ccc2cc(C(C)C)ccc2c1      1.57
2                  CCOCCOCCOCCO      10.6
3  O=c1[nH]c(=O)c2[nH]cnc2[nH]1     0.842
4         CC(C)C(=O)OC(=O)C(C)C     -1.65

Consider the additional compound presented here.
What value of max response has been recorded for this entry: CCOC(=O)C1=NN(c2ccc(Cl)cc2Cl)C(C)(C(=O)OCC)C1 (stereo not given)
-0.641

----------
# tested.system: Tumor susceptibility gene 101 protein (Homo sapiens)
# assay.procedure: qHTS Assay for Iinhibitors of HIV-1 Budding by Blocking the Interaction of PTAP/TSG101: Hit Validation (AID 651600); also: nearly all actives have a fitted effect of over 70% in size
# experimental.setup: PTAP peptide/TSG101 UEV interaction, biochemical assay; series mostly up to 57.5 µM
Results filed as inconclusive are left out. Calls of active or inactive are those of the source. Calls come from the whole dose curve; as a rule, active = well fitted inhibition curve with a large enough effect; inconclusive = small, poorly fitted or top-dose-only effect; inactive = no such curve, though single readings can be large or run the other way.
The reply should be one of these categories: active, inactive

Sample answers from the record:
> print(dat)
                                   compound  classification
1  CCN(CC)C(=O)[C@H]1CC(CC(=O)NCc2cccc(C(F)(F)F)c2)C(=O)N2CCc3c([nH]c4ccc(OC)cc34)[C@]12C (some centres not stated)        inactive
2   O=[N+]([O-])c1cc(Br)cc(/C=N/n2cnnc2)c1O        inactive
3  Clc1ccc(C2=CC(c3ccco3)n3ncnc3N2)cc1 (configuration not stated)        inactive
4  CC(=O)c1ccc(N2C(=O)C3C(C2=O)C(C(=O)c2ccc(Cl)cc2)N2CCCC32)cc1 (configuration not stated)        inactive
5  Cc1ccc(C(=O)Nc2ccc(C(=O)O)cc2)cc1S(=O)(=O)NCc1ccccc1        inactive

Recorded call for Cc1ccc2nc(-c3ccco3)c(Nc3ccccc3)n2c1 ?
inactive

Recorded call for CCOc1ccc(NC(=O)N(C2CCCCC2)C(C)c2ccncc2)cc1 (configuration not stated) ?
inactive

Recorded call for O=c1[nH]c(=O)n(-c2cc(Br)c(O)c(Br)c2)cc1Br ?
inactive

Recorded call for Cc1ccc(CSc2nnc3c(n2)OC2(Nc4ccccc4-3)C(=O)Nc3ccc(F)cc32)cc1 (configuration not stated) ?
inactive

Recorded call for COc1ccc(NC(=O)c2cccc(-c3ccc(O)cc3)c2)cn1 ?
active

----------
Some molecules, each annotated with its measured max response.
# assay.procedure: qHTS assay for small molecule agonists of the antioxidant response element (ARE) signaling pathway measured by Nrf2-dependant transcriptional activity - cell viability counter screen (AID 720653); also: % is scaled to controls: 0 for no effect and ±100 for the full control effect
# experimental.setup: ARE-bla HepG2 viability, CellTiter-Glo ATP luminescence, 16 h; active compounds read low
Results filed as inconclusive are left out.
Write the answer as a number in %, unit excluded.

> print(dat)
                                   molecule  display.unit  observed
1                       C=C(C)C(=O)OCCN(C)C             %     -4.72
2  S=C([S-])NCCNC(=S)[S-].S=C([S-])NCCNC(=S)[S-].[Mn+2].[Zn+2]             %      17.6
3             CC(C)(C)c1ccc(O)c(C(C)(C)C)c1             %     -2.61
4  BrC1CCC(Br)C(Br)CCC(Br)C(Br)CCC1Br (stereo not drawn)             %     0.219
5                    CS(=O)(=O)c1ccc(Cl)cc1             %     0.283

What value of max response has been recorded for this entry: CC1(C)C(C=C(Cl)Cl)[C@H]1C(=O)OCc1cccc(Oc2ccccc2)c1 (stereo partly drawn)
-12.3

What value of max response has been recorded for this entry: CC(C)CCCCOC(=O)c1ccccc1C(=O)OCCCCC(C)C
-11

What value of max response has been recorded for this entry: COC(=O)c1ccc(I)cc1S(=O)(=O)NC(=O)Nc1nc(C)nc(OC)n1
-4.44

What value of max response has been recorded for this entry: CCOCCOCCOCCO
19.8

What value of max response has been recorded for this entry: CC(C)(C)c1n[nH]c(=O)n(N)c1=O
-8.89

----------
# tested.system: Ubiquitin carboxyl-terminal hydrolase 1 (Homo sapiens) (UniProt O94782)
# Sequence (O94782 whole entry, looked up): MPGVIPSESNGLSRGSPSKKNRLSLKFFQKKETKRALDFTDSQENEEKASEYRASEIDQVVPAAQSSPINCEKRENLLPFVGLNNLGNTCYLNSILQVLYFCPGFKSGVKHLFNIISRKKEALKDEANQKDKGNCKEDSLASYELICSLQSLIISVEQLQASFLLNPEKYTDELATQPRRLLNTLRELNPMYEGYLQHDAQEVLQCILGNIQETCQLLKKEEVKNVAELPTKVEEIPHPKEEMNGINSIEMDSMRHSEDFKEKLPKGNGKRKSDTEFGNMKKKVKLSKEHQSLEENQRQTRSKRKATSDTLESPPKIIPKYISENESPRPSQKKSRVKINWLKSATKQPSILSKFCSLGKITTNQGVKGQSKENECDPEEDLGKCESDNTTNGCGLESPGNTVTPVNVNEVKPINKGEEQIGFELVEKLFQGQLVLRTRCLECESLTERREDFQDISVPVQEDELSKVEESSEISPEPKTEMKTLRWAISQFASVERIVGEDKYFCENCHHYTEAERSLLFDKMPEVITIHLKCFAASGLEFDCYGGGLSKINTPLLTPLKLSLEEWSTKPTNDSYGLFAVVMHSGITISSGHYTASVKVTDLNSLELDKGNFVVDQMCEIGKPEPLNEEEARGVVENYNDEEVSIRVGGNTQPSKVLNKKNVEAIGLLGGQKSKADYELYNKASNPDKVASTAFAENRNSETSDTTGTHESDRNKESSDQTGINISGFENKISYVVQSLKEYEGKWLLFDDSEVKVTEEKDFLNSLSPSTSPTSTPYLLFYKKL
# assay.procedure: Inhibitors of USP1/UAF1: Pilot qHTS (AID 504865);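 also: rhodamine fluorescence freed from ubiquitin-rhodamine substrate followed over time; top concentration of the series differs between compounds; % is scaled to controls: 0 for no effect and ±100 for the full control effect; nearly all actives have a fitted effect of over 35% in size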
# experimental.setup: purified USP1/UAF1, Ub-rhodamine cleavage fluorescence; series mostly up to 114 µM
Inconclusive results are not listed. Calls of active or inactive are those of the source. Calls follow the shape of the dose curve; as a rule, active = well fitted inhibition curve with a large enough effect; inconclusive = small, poorly fitted or top-dose-only effect; inactive = flat fitted curve, though single readings scatter.
test.readout: outcome

compound	test.readout	observed
CNCC(=O)NC(CCCN=C(N)N)C(=O)NC(C(=O)NC(Cc1ccc(O)cc1)C(=O)NC(C(=O)NC(Cc1cnc[nH]1)C(=O)N1CCCC1C(=O)NC(C)C(=O)O)C(C)C)C(C)C (configuration not stated)	outcome	inactive
CC(C)C[C@H](NC(=O)[C@@H](Cc1c[nH]c2ccccc12)NC(=O)[C@@H](Cc1ccc(O)cc1)NC(=O)[C@@H](CO)NC(=O)[C@@H](Cc1c[nH]c2ccccc12)NC(=O)C(Cc1cnc[nH]1)NC(=O)C1CCC(=O)N1)C(=O)N[C@@H](CCCN=C(N)N)C(=O)N1CCC[C@@H]1C(=O)NCC(N)=O (some centres not stated)	outcome	inactive

Attribution: PubChem BioAssay (NCATS)
